Listed here: items and their measured inhibition.
molecular target: Virion infectivity factor (Human immunodeficiency virus type 1 group M subtype B (isolate BH10)) + Virion infectivity factor (Human immunodeficiency virus type 1 group M subtype B (isolate BRU/LAI)) + Virion infectivity factor (Human immunodeficiency virus type 1 group M subtype B (isolate PCV12)) + Virion infectivity factor (Human immunodeficiency virus type 1 group M subtype B (isolate HXB2)) + DNA dC->dU-editing enzyme APOBEC-3G (Homo sapiens) (UniProt P69720+P69721+P69722+P69723+Q9HC16); assay: inhibitors of Vif binding to APOBEC3G peptide, primary screen, biochemical, TR-FRET, GST-Vif 1-94, biotin-A3G peptide, dose response retest (AID 1117319); conditions: hits give high values;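 also: Vif residues 1-94 fused to GST binding biotinylated APOBEC3G peptide 110-148; 0% = full assay without inhibitor and 100% = GST in place of GST-Vif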
Screen size: about 260,000 compounds; about 1,500 (0.58%) were called active. Inconclusive results (about 5%) are left out. The list is a sample of the results. Results with a measured potency or affinity are listed apart.
Hi! Could you send only the number? It should be in %, unit omitted.

Incoming: Fill in: inhibition of `COC(=O)C1=C(C)NC(C)=C(C(=O)OC)C1c1cc2cc(C)ccc2[nH]c1=O` is ___
Outgoing: -2.33

Incoming: Next molecule: CCOC(=O)C(C)/C(C)=N/NC(=O)CCC(=O)Nc1cc(C)ccc1C (stereo not drawn)
Outgoing: 3.1

---
Incoming: Fill in: inhibition of `O=C1NC2(CCCCC2)C(=O)N1Cc1cc(=O)n2ccsc2n1` is ___
Outgoing: -0.24

Incoming: Next molecule: `CCN(CC)C(=O)Oc1ccc2c(c1)O/C(=C\c1ccco1)C2=O`
Outgoing: 12.6
